Ref: ChEMBL document CHEMBL3593206

biological target: UniProt:P50281; assay: Inhibition of MMP14 (unknown origin) using Mca-KLPGL-Dnp-AR as substrate at 100 uM preincubated for 30 mins followed by substrate addition measured after 1 hr by fluorescence assay relative to control
attributeMeasured: inhibition
Be sure to follow the number with its unit.

Some solved entries appear below for comparison.
INSERT INTO assay_data (compound, testedon, experimentalresult) VALUES
  ('CCCC[C@H]1CN([C@@H](Cc2ccc(O)cc2)CN2CCC[C@H]2CN2C(=O)C(=O)NC[C@H]2Cc2ccc3ccccc3c2)C(=O)C(=O)N1CCC12CC3CC(CC(C3)C1)C2', 'UniProt:P50281', '0%'),
  ('O=C1NCC(Cc2ccccc2)N(C[C@@H]2CCCN2C[C@@H](CC2CCCCC2)N2C[C@H](Cc3ccccc3)N(CCc3ccccc3)C(=O)C2=O)C1=O (single isomer, unassigned)', 'UniProt:P50281', '0%'),
  ('O=C1NC[C@H](Cc2ccccc2)N(C[C@@H]2CCCN2C[C@H](Cc2ccccc2)N2C[C@H](Cc3ccc(O)cc3)N(CCC34CC5CC(CC(C5)C3)C4)C(=O)C2=O)C1=O', 'UniProt:P50281', '0%'),
  ('O=C1NC[C@@H](Cc2ccc(O)cc2)N(C[C@@H]2CCCN2C[C@@H](Cc2ccc3ccccc3c2)N2CC(Cc3ccc(O)cc3)N(CCC34CC5CC(CC(C5)C3)C4)C(=O)C2=O)C1=O (single isomer, unassigned)', 'UniProt:P50281', '25%');

Consider now this further compound.
Please look up its inhibition: "O=C1NC[C@H](Cc2ccccc2)N(C[C@@H]2CCCN2C[C@@H](CC2CCCCC2)N2C[C@H](Cc3ccc(O)cc3)N(CCc3ccccc3)C(=O)C2=O)C1=O" 27%
